Activity values, listed per item
Biological target: Substance-P receptor (Homo sapiens, UniProt P25103)
Sequence (P25103 whole entry): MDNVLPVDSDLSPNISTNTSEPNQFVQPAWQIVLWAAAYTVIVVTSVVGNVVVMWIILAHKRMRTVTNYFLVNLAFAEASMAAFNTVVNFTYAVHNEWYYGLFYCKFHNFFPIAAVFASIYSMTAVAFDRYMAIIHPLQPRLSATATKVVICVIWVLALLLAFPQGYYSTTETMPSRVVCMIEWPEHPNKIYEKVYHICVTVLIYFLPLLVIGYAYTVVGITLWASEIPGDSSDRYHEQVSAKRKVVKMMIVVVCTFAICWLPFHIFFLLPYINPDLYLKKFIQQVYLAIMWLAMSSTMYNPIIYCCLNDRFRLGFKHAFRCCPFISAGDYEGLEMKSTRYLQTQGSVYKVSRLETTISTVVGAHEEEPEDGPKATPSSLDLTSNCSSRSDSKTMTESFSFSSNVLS
Test: Partial agonist activity at His6-tagged NK1 receptor (unknown origin) expressed in CHO cells assessed as IP1 accumulation at 5 x 10^-5M measured after 30 mins by HTRF-FRET assay relative to control
Assay type: functional, cell-based
Answer with a number only, understood to be in %.

Which Activity value is on record for CC(=O)NC1=C(C#N)[C@H](c2ccc(C)cc2)C([S@+]([O-])c2ccc(C)cc2)=C(c2ccccn2)O1 ?
30.4

Note, next up: Cc1ccc(SC2=C(c3ccccn3)OC(NC(=O)C(F)(F)F)=C(C#N)[C@H]2c2ccc([N+](=O)[O-])cc2)cc1
62.3

Note, next up: Cc1ccc(SC2=C(c3ccccn3)OC(NC(=O)C(F)(F)F)=C(C#N)[C@H]2c2ccccc2)cc1
34.2

The record that follows has no Activity shown yet.
Which Activity value is on record for CC(=O)NC1=C(C#N)[C@@H](c2ccc(C)cc2)C([S@@+]([O-])c2ccc(C)cc2)=C(c2ccccn2)O1 ?
30.4

Where these numbers come from: ChEMBL document CHEMBL4190268
